This section presents compounds with their documented Population Tubulin-Different-Phenotype (%) values.
- Test system: U2OS
- assayProtocol: Multiplex assay against U2OS
- Assay type: toxicity, cell-based
- studyConditions: human, 12 h, 10 µM, compound concentration 10 uM, replicate 1
quantity: Population Tubulin-Different-Phenotype (%)

>>> valuemeasured("C[C@@H](Oc1cc(-n2cnc3ccc(CN4CCN(C)CC4)cc32)sc1C(N)=O)c1ccccc1C(F)(F)F")
100
>>> valuemeasured("CCCCN(CC)c1nc(C)nc2c1c(C)cn2-c1c(C)cc(C)cc1C.Cl")
37
>>> valuemeasured("Oc1cccc(-c2nc(N3CCOCC3)c3oc4ncccc4c3n2)c1")
80
>>> valuemeasured("Cl.NC[C@@H]1O[C@H](C23CC4CC(CC(C4)C2)C3)Cc2c1ccc(O)c2O")
5
>>> valuemeasured("CC[C@@H]1C(=O)N(C)c2cnc(Nc3ccc(C(=O)NC4CCN(C)CC4)cc3OC)nc2N1C1CCCC1")
99
>>> valuemeasured("CC[C@H](Nc1ncnc2[nH]cnc12)c1nc2cccc(F)c2c(=O)n1-c1ccccc1")
90
>>> valuemeasured("CC[C@@]1(O)C(=O)OCc2c1cc1n(c2=O)Cc2cc3ccccc3nc2-1")
31
>>> valuemeasured("CCOc1ccn(-c2ccc(F)cc2)c(=O)c1C(=O)Nc1ccc(Oc2ccnc(N)c2Cl)c(F)c1")
29
>>> valuemeasured("CC(/C=C1\\SC(=S)N(CCCC(=O)Nc2ccc(C(=O)O)c(O)c2)C1=O)=C\\c1ccccc1")
8
>>> valuemeasured("Cc1c(P(=S)(c2ccccc2)c2ccccc2)n2ccccc2[n+]1C/C=C/c1ccccc1.[Br-]")
100
>>> valuemeasured("Cl.Cn1c2c(c3ccc(Cl)c(Cl)c31)C(C#N)C1(CCNCC1)NC2=O (configuration not stated)")
96
>>> valuemeasured("COc1cc(C)c(Sc2cnc(NC(=O)c3ccc(CNC(C)C(C)(C)C)cc3)s2)cc1C(=O)N1CCN(C(C)=O)CC1 (configuration not stated)")
32
>>> valuemeasured("CCOC(=O)CCNc1cc(N2CCc3ccccc3CC2)nc(-c2ccccn2)n1")
34
>>> valuemeasured("c1ccc(-c2oc3ncnc(NC[C@@H]4CCCO4)c3c2-c2ccccc2)cc1")
93
>>> valuemeasured("Cc1ccc(NC(=O)Nc2cc(C(F)(F)F)ccc2F)cc1Nc1ccc2c(c1)NC(=O)/C2=C\\c1ccc[nH]1")
27
>>> valuemeasured("CN(c1cc(C(F)(F)F)nc(OCCC(=O)O)n1)c1cccc2c1CCC2")
15
>>> valuemeasured("CN1C(=O)[C@@H](NC(=O)c2cc3ccccc3[nH]2)N=C(c2ccccc2)c2ccccc21 [DEVAZEPIDE]")
70
>>> valuemeasured("C=CC(=O)Nc1cc(-n2c(=O)ccc3cnc4ccc(-c5ccc(NS(C)(=O)=O)cc5)cc4c32)ccc1C")
29
>>> valuemeasured("NC(=O)c1ccc2nc(-c3ccc(C4(N)CCC4)cc3)c(-c3ccccc3)n2n1")
27
>>> valuemeasured("N#Cc1cccc(C(=O)Nc2cc(-c3ccccc3)nn2-c2ccccc2)c1")
100
>>> valuemeasured("Cc1ccc(S(=O)(=O)NC2c3ccccc3Oc3ccccc32)cc1")
68
>>> valuemeasured("CCCc1cc(C)[nH]c(=O)c1CNC(=O)c1cc(-c2ccc(N3CCN(C(C)C)CC3)nc2)cc2c1cnn2C(C)C")
98
>>> valuemeasured("CC(C)C[C@H](NC(=O)[C@H](Cc1ccccc1)NC(=O)CNC(=O)CNC(=O)[C@@H](N)Cc1ccc(O)cc1)C(=O)O")
9
>>> valuemeasured("N#CCNC(=O)c1ccc(-c2ccnc(Nc3ccc(N4CCOCC4)cc3)n2)cc1")
20
>>> valuemeasured("CC(C)[C@H](CO)Nc1nc(Nc2cccc(Cl)c2)c2ncn(C(C)C)c2n1")
100
>>> valuemeasured("CC(Cc1ccc(O)c(O)c1)C(C)Cc1ccc(O)c(O)c1 (configuration not stated) [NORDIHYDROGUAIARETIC ACID]")
30
>>> valuemeasured("CCCCCNC(=N)N/N=C/c1c[nH]c2ccc(OC)cc12.O=C(O)/C=C\\C(=O)O [TEGASEROD MALEATE]")
100
